system: Mus musculus; test: Toxicity in subcutaneous pentylenetetrazole-induced CF1 albino mouse assessed as myoclonic jerks at 300 mg/kg, ip after 4 hrs; assay type: organism-based; design: dose 300 mg/kg; conditions: in vivo, sc
metric: Activity

> print(dat)
                                   compound  result
1  O=C1NC(c2ccccc2)(C2CC2)C(=O)N1CN1CCN(CCc2ccccc2)CC1 (stereo not given)   Toxic
2  O=C(c1ccccc1)N1CCN(CN2C(=O)NC(c3ccccc3)(C3CC3)C2=O)CC1 (stereo not given)   Toxic
3  O=C(OCc1ccccc1)N1CCN(CN2C(=O)NC(c3ccccc3)(C3CC3)C2=O)CC1 (stereo not given)   Toxic
4  CC(c1ccccc1)N1CCN(CN2C(=O)NC(c3ccccc3)(C3CC3)C2=O)CC1 (stereo not given)   Toxic
5  O=C1NC(c2ccccc2)(C2CC2)C(=O)N1CN1CCc2ccccc2C1 (stereo not given)   Toxic
